Test: ASC/caspase-1 reporter retest in S. cerevisiae at one dose, specificity check for NALP1 project (AID 488857)
Settings: S. cerevisiae ASC/Caspase-1, beta-galactosidase luminescence, 24 h; at 10 µM; active compounds read high
The campaign covered roughly 1,400 compounds. About 560 (40%) were called active. So high a share suggests a set chosen from earlier hits. The list shows a part of the results.
measure: inhibition (%)
All answers are understood in %, so give the number only.

Provide only the value of recorded inhibition for `COC(=O)N/N=C/c1ccc(OC(=O)c2ccco2)c(OC)c1`
30.8

Provide only the value of recorded inhibition for `COc1ccc(OC)c(NC(=O)c2sc3nc(Cc4ccccc4)cc(C(F)(F)F)c3c2N)c1`
40.6

Provide only the value of recorded inhibition for `Clc1ccc2c(N/N=C/c3ccccc3Br)ccnc2c1`
31.4

Provide only the value of recorded inhibition for `Clc1ccc2c(N/N=C/c3ccc(Br)cc3)ccnc2c1`
55.6

Provide only the value of recorded inhibition for CCC(C)NC(=O)c1cc2cc3ccc(OC)cc3nc2s1 (configuration not stated)
56.8

Provide only the value of recorded inhibition for `COCC(=O)OCC(=O)Nc1cc(C(C)(C)C)nn1-c1ccccc1`
21.4

Provide only the value of recorded inhibition for `Cc1ccc(/C=N/NC(=O)c2ccc3nc[nH]c3c2)o1`
47.4

Provide only the value of recorded inhibition for `Cc1ccc(/C=N/Nc2ccnc3cc(Cl)ccc23)c(C)c1`
55

Provide only the value of recorded inhibition for Fc1ccc(NC(=S)N2CCSC2c2cccs2)cc1 (configuration not stated)
25.8

Provide only the value of recorded inhibition for `Clc1ccc2c(N/N=C/c3cccc(Br)c3)ccnc2c1`
57

Provide only the value of recorded inhibition for `CCCCNC(=O)C(=O)N/N=C/c1cccc(Br)c1`
37.1

Provide only the value of recorded inhibition for `COC(=O)N/N=C/c1ccc(-c2cccc(Cl)c2)o1`
80.9

* * *

Assay: ASC/caspase-1 reporter retest in S. cerevisiae at one dose, specificity check for NALP1 project (AID 488857)
Conditions: S. cerevisiae ASC/Caspase-1, beta-galactosidase luminescence, 24 h; at 10 µM
Among all 1,400 compounds or so, about 560 (40%) were called active.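 How the source made its calls: active means mean inhibition over duplicate tests at 10 µM above 50%; inactive means the rest.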 The set was probably picked from earlier hits. The list shows a part of the results.
Hi! Could you answer with just one of these? active, inactive

Recorded call for `COc1cc(NC(=O)c2cccs2)cc(OC)c1` ?
active

Recorded call for `O=C(Nc1ccon1)c1cc2ccccc2oc1=O` ?
inactive

Recorded call for O=C(O)c1ccccc1SC1CC(=O)N(c2ccccc2)C1=O (stereo unspecified) ?
inactive

Recorded call for COc1cc(NC(C)CCCN)c2ncccc2c1Oc1ccccc1 (stereo unspecified) ?
inactive

Recorded call for `O=C(NC(=S)Nc1cccnc1)c1cc2ccccc2o1` ?
active

Recorded call for `CCN(CC)S(=O)(=O)c1cccc(C(=O)Oc2cccc(NC(=O)c3cccs3)c2)c1` ?
inactive

* * *

Assay: ASC/caspase-1 reporter retest in S. cerevisiae at one dose, specificity check for NALP1 project (AID 488857)
Settings: S. cerevisiae ASC/Caspase-1, beta-galactosidase luminescence, 24 h; at 10 µM; active compounds read high
The whole screen tested about 1,400 compounds, of which about 560 (40%) were called active. So high a share suggests a set chosen from earlier hits. This is one part of the list.
measure: inhibition (%)
All answers are understood in %, so give the number only.

Provide only the value of recorded inhibition for `c1ccc(COc2ccc(OCCN3CCCCC3)cc2)cc1`
39.1

Provide only the value of recorded inhibition for CC1CCCC(C)N1C(=O)CN1CCN(c2nc(-c3ccc(F)cc3)cs2)CC1 (stereo not drawn)
44.5

Provide only the value of recorded inhibition for `N=c1n(CC(=O)c2ccc([N+](=O)[O-])cc2)c2ccccc2n1Cc1ccccc1Cl`
28.8

Provide only the value of recorded inhibition for `N/C(Cc1ccc(Cl)cc1Cl)=N\OC(=O)c1cccs1`
53.2

Provide only the value of recorded inhibition for `Cc1nc([N+](=O)[O-])c(Br)n1CC(=O)c1ccc(Cl)cc1`
37.6

Provide only the value of recorded inhibition for `Cc1cc(C)c(S(=O)(=O)Nc2cc(SCC(=O)O)c(O)c3ccccc23)cc1C`
17.9

Provide only the value of recorded inhibition for `COc1ccc(CCNC(=O)C2CCN(S(=O)(=O)c3ccc(Cl)cc3)CC2)cc1OC`
23.4

Provide only the value of recorded inhibition for `COc1ccc(Cl)cc1C(=O)O/N=C(\N)c1ccc(Cl)cc1`
43.9

Provide only the value of recorded inhibition for `COc1ccc(N2CCN(CC(=O)NC(=O)NCc3ccco3)CC2)cc1`
33.3

Provide only the value of recorded inhibition for `Cc1ccccc1Cn1c(=N)n(CC(=O)c2ccc([N+](=O)[O-])cc2)c2ccccc21`
53.6

Provide only the value of recorded inhibition for `O=S(=O)(Nc1ccc(Oc2ncccn2)c(Cl)c1)c1ccc(F)cc1`
32.6

Provide only the value of recorded inhibition for `CCN1CCN(Cc2cccc(Oc3ccccc3)c2)CC1`
40

Provide only the value of recorded inhibition for `O=S(=O)(Nc1cc(Sc2cccc3cccnc23)c(O)c2ccccc12)c1ccc(F)cc1`
90.7

Provide only the value of recorded inhibition for `COc1ccc(C(=O)O/N=C(\N)Cc2ccc(Cl)cc2Cl)cc1OC`
72.4

Provide only the value of recorded inhibition for `CCCNC(=O)c1nnsc1S(=O)(=O)c1ccc(Cl)cc1`
91

Provide only the value of recorded inhibition for `CN(C)Cc1ccccc1COc1ccccc1`
31.8

Provide only the value of recorded inhibition for `CNC(=O)c1nnsc1S(=O)(=O)c1ccc(Cl)cc1`
73

Provide only the value of recorded inhibition for `O=C(O)Cn1nc(-c2ccccc2)oc1=O`
20.1

Provide only the value of recorded inhibition for OC(CNCCc1ccc(C(F)(F)F)cc1)COc1cccc2ccccc12 (stereo not drawn)
59.9

Provide only the value of recorded inhibition for O=C(Nc1cc(N2CCOCC2)ncn1)NC1(C(F)(F)F)Oc2ccc(Cl)cc2O1 (stereo not drawn)
36.8

Provide only the value of recorded inhibition for `CCN(CC)CCCOc1ccc(Cl)c(Cl)c1`
39.4

Provide only the value of recorded inhibition for CC(NCCC(c1ccccc1)c1ccccc1)c1ccccc1 (stereo not drawn)
50.4

Provide only the value of recorded inhibition for CC1CCCCN1S(=O)(=O)c1cnc(Cl)c(Br)c1 (stereo not drawn)
59.8
